# Test system: Staphylococcus aureus NRS384 (MRSA USA300)
# PROTOCOL_DESCRIPTION: Initial MIC screening, broth microdilution (CLSI)
# Format: cell-based
# CONDITION_DESCRIPTION: Staphylococcus aureus, Staphylococcus aureus NRS384 (MRSA USA300), broth microdilution, visual reading; read-out: MIC
MEASUREMENT_LABEL: MIC (mg/L)

A = C=C1C(=O)O[C@H](c2cc3ccccc3cn2)[C@@H]1C [Compound 105]
B = C=C1C(=O)O[C@H](c2ccc(OC)cc2)[C@@H]1c1cccc(Br)c1 [Compound 3]
Task: Between A and B , whose recorded MIC is greater? Please respond with the label that marks your chosen entry.
Result: A

I = C=C1C(=O)O[C@H](c2ccc(C#N)cc2)[C@@H]1c1ccc(C)cc1 [Compound 37]
II = C=C1C(=O)O[C@H](c2ccccc2OC)[C@@H]1c1ccc(C#N)cc1 [Compound 42]
Task: Between the two listed entries I and II , which has its MIC at the higher number? In your reply, give the label of the chosen option.
Result: II
(II: 32 mg/L, I: 16 mg/L)
